Parameter AC50: see the listing below.
TARGET: Voltage-gated inwardly rectifying potassium channel KCNH2 (Homo sapiens, UniProt Q12809); also: assay procedure not described here
Sequence (Q12809 whole entry): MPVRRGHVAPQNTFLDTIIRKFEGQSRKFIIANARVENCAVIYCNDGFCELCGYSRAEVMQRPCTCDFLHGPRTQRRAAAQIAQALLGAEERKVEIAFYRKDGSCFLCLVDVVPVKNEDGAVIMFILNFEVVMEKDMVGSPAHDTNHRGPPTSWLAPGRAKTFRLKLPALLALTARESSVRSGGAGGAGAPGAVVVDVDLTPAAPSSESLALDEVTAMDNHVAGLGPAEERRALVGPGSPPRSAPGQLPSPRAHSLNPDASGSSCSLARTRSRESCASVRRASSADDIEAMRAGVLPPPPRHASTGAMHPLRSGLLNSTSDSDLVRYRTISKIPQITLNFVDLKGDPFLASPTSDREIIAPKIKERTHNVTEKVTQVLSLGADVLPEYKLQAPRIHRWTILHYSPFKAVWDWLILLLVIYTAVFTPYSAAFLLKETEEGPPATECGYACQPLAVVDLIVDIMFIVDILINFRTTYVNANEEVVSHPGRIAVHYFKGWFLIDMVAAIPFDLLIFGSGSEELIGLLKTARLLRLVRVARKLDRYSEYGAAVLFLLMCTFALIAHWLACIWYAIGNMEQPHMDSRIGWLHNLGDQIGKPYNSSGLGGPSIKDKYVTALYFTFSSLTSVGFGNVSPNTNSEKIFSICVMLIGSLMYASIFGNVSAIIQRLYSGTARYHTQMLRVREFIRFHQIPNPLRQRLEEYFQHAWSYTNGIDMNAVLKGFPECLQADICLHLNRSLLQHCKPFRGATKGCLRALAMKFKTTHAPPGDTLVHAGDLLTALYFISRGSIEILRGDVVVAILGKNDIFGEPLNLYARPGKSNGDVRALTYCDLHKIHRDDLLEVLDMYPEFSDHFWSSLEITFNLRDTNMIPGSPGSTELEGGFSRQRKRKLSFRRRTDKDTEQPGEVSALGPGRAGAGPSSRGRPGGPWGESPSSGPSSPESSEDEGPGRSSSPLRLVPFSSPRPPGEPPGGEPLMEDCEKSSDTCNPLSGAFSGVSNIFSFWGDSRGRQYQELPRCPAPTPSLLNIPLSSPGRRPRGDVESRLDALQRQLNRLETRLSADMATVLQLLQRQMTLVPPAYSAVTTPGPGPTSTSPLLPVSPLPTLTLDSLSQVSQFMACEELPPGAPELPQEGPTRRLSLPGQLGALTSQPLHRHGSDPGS
Type: functional
APPLIED_CONDITIONS: read-out: AC50
PROPERTY_NAME: AC50

INSERT INTO measurements (molecule, property_name, result) VALUES
  ('C=C1C[C@@H]2[C@H](CC[C@]3(C)C(=O)CC[C@@H]23)[C@@]2(C)C=CC(=O)C=C12', 'AC50', '> 30 µM'),
  ('C[C@@H]1C[C@H]2[C@@H]3C[C@H](F)C4=CC(=O)C(Cl)=C[C@]4(C)[C@@]3(F)[C@@H](O)C[C@]2(C)[C@@]1(O)C(=O)CO', 'AC50', '> 30 µM'),
  ('CC(C)NNC(=O)c1ccncc1', 'AC50', '> 30 µM'),
  ('Oc1c(I)cc(I)c2cccnc12', 'AC50', '> 30 µM'),
  ('O=C(C[S+]([O-])C(c1ccccc1)c1ccccc1)NO (stereo not drawn)', 'AC50', '> 30 µM'),
  ('C1N2CN3CN1CN(C2)C3', 'AC50', '> 30 µM'),
  ('CN[C@@H]1[C@H](O)[C@H](NC)[C@H]2O[C@@]3(O)C(=O)C[C@@H](C)O[C@H]3O[C@@H]2[C@H]1O', 'AC50', '> 30 µM'),
  ('CCCC(=O)N1CCCN(c2nc(N)c3cc(OC)c(OC)cc3n2)CC1', 'AC50', '4.5 µM'),
  ('Nc1nc2c(ncn2CCC(CO)CO)c(=O)[nH]1', 'AC50', '> 30 µM'),
  ('CN1C(=O)CC(=O)N(c2ccccc2)c2cc(Cl)ccc21', 'AC50', '> 30 µM'),
  ('Cc1cc(-c2ccccc2)nnc1NCCN1CCOCC1', 'AC50', '3.44 µM'),
  ('COc1c(C)c2c(c(O)c1C/C=C(\C)CCC(=O)OCCN1CCOCC1)C(=O)OC2 [MYCOPHENOLATE MOFETIL]', 'AC50', '13 µM'),
  ('Cc1c(-c2ccccc2)oc2c(C(=O)OCCN3CCCCC3)cccc2c1=O [FLAVOXATE]', 'AC50', '3.8 µM');

Every entry's value here was drawn from ChEMBL document CHEMBL5291721.
